- Tested on: chloroquine-resistant K1 strain of P. falciparum
- measurement protocol: In vitro antimalarial semiautomated microdilution assay ([3H]-hypoxanthine incorporation), K1 strain
- Format: cell-based, Plasmodium falciparum
- particulars: Plasmodium falciparum, K1, 72 h, read-out: IC50 (ng/ml) K1, chloroquine-resistant K1 strain, 72 h incubation
# IC50 listing for each entry below
Numeric answer only, unit ng/mL assumed.

compound=CS(=O)(=O)C[C@H]1CC[C@]2(CC1)OO[C@]1(O2)C2CC3CC(C2)CC1C3 reading_unit=ng/mL assay_result=0.62

Now examine the next entry.
Lab note: need IC50 for CCS(=O)(=O)CCN1CCC2(CC1)OOC1(O2)C2CC3CC(C2)CC1C3 (centres unmarked) on chloroquine-resistant K1 strain of P. falciparum, anyone have it?
1

* * *

- Test system: ANKA strain of P. berghei
- measurement protocol: Single dose STI in vivo screen in infected mice
- Set-up: species or system Plasmodium berghei
- particulars: single 10 mg/kg po in SSV; untreated 6-7 days
Counter-ions that a name gives are not always drawn.
readout kind: Survival (days) 10 mg/kg SSV po
Numeric answer only, unit days assumed.

These solved cases illustrate the format of a correct answer.
compound="c1ccc(CNC2CCC3(CC2)OOC2(O3)C3CC4CC(C3)CC2C4)cc1 (stereo not drawn) [OZ160, hydrochloride]" assay_result=6.7
compound="NS(=O)(=O)c1ccc(NC[C@H]2CC[C@]3(CC2)OO[C@]2(O3)C3CC4CC(C3)CC2C4)cc1 [OZ298]" assay_result=9.4
compound="Cc1ccc(S(=O)(=O)O)cc1.NC[C@H]1CC[C@]2(CC1)OOC1(O2)C2CC3CC(C2)CC1C3 (stereo partly drawn) [OZ207]" assay_result=12.0
compound="CCOC(=O)CCC[C@H]1CC[C@]2(CC1)OOC1(O2)C2CC3CC(C2)CC1C3 (stereo partly drawn) [OZ260]" assay_result=7.0

Report Survival (days) 10 mg/kg SSV po for CS(=O)(=O)C[C@H]1CC[C@]2(CC1)OO[C@]1(O2)C2CC3CC(C2)CC1C3 [OZ307] please.
9.4

* * *

- System: ANKA strain of P. berghei
- measurement protocol: Single dose STI in vivo screen in infected mice
- Design: species or system Plasmodium berghei
- particulars: single 10 mg/kg po in SSV; untreated 6-7 days
Structures can show the parent of a compound that is named as a salt.
readout kind: Survival (days) 10 mg/kg SSV po
Provide a numeric answer, followed by its unit.

compound="Clc1ccc2c(NCCNC3CCC4(CC3)OOC3(O4)C4CC5CC(C4)CC3C5)ccnc2c1 (centres unmarked) [OZ258]" assay_result="6.0 days"

Report Survival (days) 10 mg/kg SSV po for NCC1(c2ccccc2)CCC2(CC1)OOC1(O2)C2CC3CC(C2)CC1C3 (centres unmarked) [OZ117, hydrochloride] please.
7.7 days

Report Survival (days) 10 mg/kg SSV po for CCOC(=O)c1ccc([C@H]2CC[C@]3(CC2)OOC2(O3)C3CC4CC(C3)CC2C4)cc1 (some centres unmarked) [OZ164] please.
5.7 days

Report Survival (days) 10 mg/kg SSV po for OC(c1cc(C(F)(F)F)nc2c(C(F)(F)F)cccc12)C1CCCCN1 (centres unmarked) [MFQ, mefloquine, reference compound] please.
17 days

* * *

- Tested on: chloroquine-resistant K1 strain of P. falciparum
- measurement protocol: In vitro antimalarial semiautomated microdilution assay ([3H]-hypoxanthine incorporation), K1 strain
- Assay type: cell-based, Plasmodium falciparum
- particulars: Plasmodium falciparum, K1, 72 h, read-out: IC50 (ng/ml) K1, chloroquine-resistant K1 strain, 72 h incubation
Counter-ions that a name gives are not always drawn.
# IC50 listing for each entry below
Numeric answer only, unit ng/mL assumed.

compound="O=C(NCCO)[C@H]1CC[C@]2(CC1)OOC1(O2)C2CC3CC(C2)CC1C3 (stereo partly shown) [OZ155]" assay_target="chloroquine-resistant K1 strain of P. falciparum" assay_result=12
compound="O=C(C[C@H]1CC[C@]2(CC1)OO[C@]1(O2)C2CC3CC(C2)CC1C3)NCCN1CCOCC1 [OZ313]" assay_target="chloroquine-resistant K1 strain of P. falciparum" assay_result=0.55
compound="C1CCC(NC2CCC3(CC2)OOC2(O3)C3CC4CC(C3)CC2C4)CC1 (stereo not shown) [OZ162, hydrochloride]" assay_target="chloroquine-resistant K1 strain of P. falciparum" assay_result=0.5

Now examine the next entry.
Report IC50 for OC1(Cc2ccccn2)CCC2(CC1)OOC1(O2)C2CC3CC(C2)CC1C3 (stereo not shown) [OZ275] please.
0.66

* * *

- measurement protocol: Pharmacokinetics in rats (IV and oral dosing)
- particulars: in vivo; rat, oral 25 mg/kg
- From the text: Artesunate is listed as a reference compound.
readout kind: half-life

compound="Cc1ccc(S(=O)(=O)O)cc1.O=C(C[C@H]1CC[C@]2(CC1)OO[C@]1(O2)C2CC3CC(C2)CC1C3)N1CCNCC1 [OZ279]" assay_result="2.78 h"

Now examine the next entry.
Report half-life for CC(C)(N)CNC(=O)C[C@H]1CC[C@]2(CC1)OO[C@]1(O2)C2CC3CC(C2)CC1C3 [OZ277] please.
1.51 h

* * *

# % reduction of adult worms growth at day 49 after per os application of 400 mg/kg, TWR (%) listing for each entry below
- Tested on: Schistosoma mansoni adult worms (49-day-old)
- measurement protocol: Effect on adult schistosomes (49-day-old) in infected mice
- Format: in vivo
- particulars: single 400 mg/kg per os, 49-day-old adults; total worm reduction rate
Numeric answer only, unit % assumed.

These solved cases illustrate the format of a correct answer.
molecule="O=C1COC2(CCC3(CC2)OOC2(O3)C3CC4CC(C3)CC2C4)OC1 (stereo not shown)" assay_target="Schistosoma mansoni adult worms (49-day-old)" assay_result=0
molecule="c1ccc(C2CCC3(CC2)OOC2(O3)C3CC4CC(C3)CC2C4)cc1 (stereo not shown)" assay_target="Schistosoma mansoni adult worms (49-day-old)" assay_result=20
molecule="C1COC2(CCC3(CC2)OOC2(O3)C3CC4CC(C3)CC2C4)O1 (stereo not shown)" assay_target="Schistosoma mansoni adult worms (49-day-old)" assay_result=28
molecule="CC(=O)N1CCC2(CC1)OOC1(O2)C2CC3CC(C2)CC1C3 (stereo not shown)" assay_target="Schistosoma mansoni adult worms (49-day-old)" assay_result=17
molecule="OCCC1CCC2(CC1)OOC1(O2)C2CC3CC(C2)CC1C3 (stereo not shown)" assay_target="Schistosoma mansoni adult worms (49-day-old)" assay_result=0
molecule="O=C(O)CC1CCC2(CC1)OOC1(O2)C2CC3CC(C2)CC1C3 (stereo not shown)" assay_target="Schistosoma mansoni adult worms (49-day-old)" assay_result=0
molecule="NC(=O)CNC[C@H]1CC[C@]2(CC1)OOC1(O2)C2CC3CC(C2)CC1C3 (stereo partly shown)" assay_target="Schistosoma mansoni adult worms (49-day-old)" assay_result=10
molecule="CC1(C)COC(c2ccc([C@H]3CC[C@]4(CC3)OOC3(O4)C4CC5CC(C4)CC3C5)cc2)=N1 (stereo partly shown)" assay_target="Schistosoma mansoni adult worms (49-day-old)" assay_result=58

Lab note: need % reduction of adult worms growth at day 49 after per os application of 400 mg/kg, TWR (%) for Cc1ccc(S(=O)(=O)O)cc1.NC[C@H]1CC[C@]2(CC1)OOC1(O2)C2CC3CC(C2)CC1C3 (stereo partly shown) on Schistosoma mansoni adult worms (49-day-old), anyone have it?
35

* * *

- measurement protocol: Pharmacokinetics in dogs (IV and oral dosing)
- particulars: in vivo; dog, IV 10 mg/kg
# half-life listing for each entry below
Provide a numeric answer, followed by its unit.

These solved cases illustrate the format of a correct answer.
compound="CC(C)(N)CNC(=O)C[C@H]1CC[C@]2(CC1)OO[C@]1(O2)C2CC3CC(C2)CC1C3 [OZ277]" assay_result="1.58 h"
compound="Cc1ccc(S(=O)(=O)O)cc1.O=C(C[C@H]1CC[C@]2(CC1)OO[C@]1(O2)C2CC3CC(C2)CC1C3)N1CCNCC1 [OZ279]" assay_result="2.96 h"
compound="NC(=O)CNC[C@H]1CC[C@]2(CC1)OOC1(O2)C2CC3CC(C2)CC1C3 (stereo partly shown) [OZ256]" assay_result="1.42 h"

Now examine the next entry.
Report half-life for NC[C@H]1CC[C@]2(CC1)OOC1(O2)C2CC3CC(C2)CC1C3 (stereo partly shown) [OZ209] please.
3.05 h

* * *

# Survival (days) 10 mg/kg SSV po listing for each entry below
- Test system: ANKA strain of P. berghei
- measurement protocol: Single dose STI in vivo screen in infected mice
- Design: species or system Plasmodium berghei
- particulars: single 10 mg/kg po in SSV; untreated 6-7 days
Numeric answer only, unit days assumed.

These solved cases illustrate the format of a correct answer.
molecule="Cc1ccc(S(=O)(=O)O)cc1.O=C(C[C@H]1CC[C@]2(CC1)OO[C@]1(O2)C2CC3CC(C2)CC1C3)N1CCNCC1 [OZ279]" assay_target="ANKA strain of P. berghei" readout_kind="Survival (days) 10 mg/kg SSV po" reading_unit=days assay_result=9.3
molecule="O=C1CN(C[C@H]2CC[C@]3(CC2)OOC2(O3)C3CC4CC(C3)CC2C4)CCN1 (stereo partly shown) [OZ285]" assay_target="ANKA strain of P. berghei" readout_kind="Survival (days) 10 mg/kg SSV po" reading_unit=days assay_result=8.7
molecule="O=C(C[C@H]1CC[C@]2(CC1)OO[C@]1(O2)C2CC3CC(C2)CC1C3)N1CCC(O)CC1 [OZ297]" assay_target="ANKA strain of P. berghei" readout_kind="Survival (days) 10 mg/kg SSV po" reading_unit=days assay_result=9.8

Now examine the next entry.
Lab note: need Survival (days) 10 mg/kg SSV po for O=C(O)c1cncn1C[C@H]1CC[C@]2(CC1)OOC1(O2)C2CC3CC(C2)CC1C3 (stereo partly shown) [OZ231] on ANKA strain of P. berghei, anyone have it?
5.7
